- EXPERIMENTAL DETAILS: Selectivity index, ratio of IC50 for human Chang cells to IC50 for human PANC1 cells
MEASUREMENT LABEL: Ratio IC50
Response field accepts a number only; no unit should be typed.

Qu. Name the recorded Ratio IC50 of the molecule listed here: CCCCCCCCCCCC[P+](Cc1ccccc1O)(c1ccccc1)c1ccccc1.[Cl-]
Ans. 1.7

Qu. Name the recorded Ratio IC50 of the molecule listed here: CCCCCCCC[P+](Cc1ccccc1O)(c1ccccc1)c1ccccc1.[Cl-]
Ans. 3.7

Qu. Name the recorded Ratio IC50 of the molecule listed here: CCCCCC[P+](Cc1ccccc1O)(c1ccccc1)c1ccccc1.[Cl-]
Ans. 0.79

* * *

- Test system: M-HeLa
- EXPERIMENTAL DETAILS: Cytotoxicity against human M-HeLa cells
- Type: functional, cell-based
MEASUREMENT LABEL: IC50 (µM)
The figure you give is taken to be in µM; do not add the unit.

Qu. Name the recorded IC50 of the compound listed here: CCCCCC[P+](Cc1ccccc1O)(c1ccccc1)c1ccccc1.[Cl-]
Ans. 50

Qu. Name the recorded IC50 of the compound listed here: CCCCCCC[P+](Cc1ccccc1O)(c1ccccc1)c1ccccc1.[Cl-]
Ans. 5.5

Qu. Name the recorded IC50 of the compound listed here: CCCCCCCCCCCC[P+](Cc1ccccc1O)(c1ccccc1)c1ccccc1.[Cl-]
Ans. 2.6

* * *

- EXPERIMENTAL DETAILS: Hemolytic activity against RBC (unknown origin) at 40 uM
- Type: ADME, cell-based, Erythrocyte
- CONDITION INFO: red blood cells (erythrocytes); read-out: Activity
Non-standard residues stand in square brackets, D forms with d. Residues, ends and D or L forms follow the SMILES beside them. Orn = NCCC[C@H](N)C(=O)O
Class MET: hemolysis at 40 µM at least 0.4%. Class NOT MET: hemolysis at 40 µM below 0.4%.

Qu. Determine whether measured hemolysis at 40 µM meets or exceeds 0.4% for CCCCCCCCCCCCCCCC[P+](Cc1ccccc1O)(c1ccccc1)c1ccccc1.[Cl-]
Ans. MET

Qu. Determine whether measured hemolysis at 40 µM meets or exceeds 0.4% for CCCCCCCCCCCC[P+](Cc1ccccc1O)(c1ccccc1)c1ccccc1.[Cl-]
Ans. MET

Qu. Determine whether measured hemolysis at 40 µM meets or exceeds 0.4% for CCCCCCCCCCCCCC[P+](Cc1ccccc1O)(c1ccccc1)c1ccccc1.[Cl-]
Ans. NOT MET

Qu. Determine whether measured hemolysis at 40 µM meets or exceeds 0.4% for CCCCCCC[P+](Cc1ccccc1O)(c1ccccc1)c1ccccc1.[Cl-]
Ans. NOT MET

Qu. Determine whether measured hemolysis at 40 µM meets or exceeds 0.4% for CC(C)C[C@@H]1NC(=O)[C@H](CCCN)NC(=O)[C@H](C(C)C)NC(=O)[C@@H]2CCCN2C(=O)[C@@H](Cc2ccccc2)NC(=O)[C@H](CC(C)C)NC(=O)[C@H](CCCN)NC(=O)[C@H](C(C)C)NC(=O)[C@@H]2CCCN2C(=O)[C@@H](Cc2ccccc2)NC1=O (cyclo(L[dF]PV[Orn]L[dF]PV[Orn]))
Ans. MET

Qu. Determine whether measured hemolysis at 40 µM meets or exceeds 0.4% for CCCCCCCCCC[P+](Cc1ccccc1O)(c1ccccc1)c1ccccc1.[Cl-]
Ans. MET

Qu. Determine whether measured hemolysis at 40 µM meets or exceeds 0.4% for CCCCCC[P+](Cc1ccccc1O)(c1ccccc1)c1ccccc1.[Cl-]
Ans. NOT MET

Qu. Determine whether measured hemolysis at 40 µM meets or exceeds 0.4% for CCCCCCCCCCCCCCCCCC[P+](Cc1ccccc1O)(c1ccccc1)c1ccccc1.[Cl-]
Ans. MET

* * *

- EXPERIMENTAL DETAILS: Hemolytic activity against RBC (unknown origin) at 240 uM
- Format: ADME, cell-based, Erythrocyte
- CONDITION INFO: red blood cells (erythrocytes); read-out: Activity
Non-standard residues stand in square brackets, D forms with d. Residues, ends and D or L forms follow the SMILES beside them. Orn = NCCC[C@H](N)C(=O)O
MEASUREMENT LABEL: hemolysis at 240 µM (%)
The figure you give is taken to be in %; do not add the unit.

Qu. Name the recorded hemolysis at 240 µM of the molecule listed here: CCCCCCCCCC[P+](Cc1ccccc1O)(c1ccccc1)c1ccccc1.[Cl-]
Ans. 9.6

Qu. Name the recorded hemolysis at 240 µM of the molecule listed here: CCCCCCCCCCCCCC[P+](Cc1ccccc1O)(c1ccccc1)c1ccccc1.[Cl-]
Ans. 100

Qu. Name the recorded hemolysis at 240 µM of the molecule listed here: CC(C)C[C@@H]1NC(=O)[C@H](CCCN)NC(=O)[C@H](C(C)C)NC(=O)[C@@H]2CCCN2C(=O)[C@@H](Cc2ccccc2)NC(=O)[C@H](CC(C)C)NC(=O)[C@H](CCCN)NC(=O)[C@H](C(C)C)NC(=O)[C@@H]2CCCN2C(=O)[C@@H](Cc2ccccc2)NC1=O (cyclo(L[dF]PV[Orn]L[dF]PV[Orn]))
Ans. 100

Qu. Name the recorded hemolysis at 240 µM of the molecule listed here: CCCCCCCCCCCCCCCCCC[P+](Cc1ccccc1O)(c1ccccc1)c1ccccc1.[Cl-]
Ans. 100

Qu. Name the recorded hemolysis at 240 µM of the molecule listed here: CCCCCCCCCCCC[P+](Cc1ccccc1O)(c1ccccc1)c1ccccc1.[Cl-]
Ans. 42.3

Qu. Name the recorded hemolysis at 240 µM of the molecule listed here: CCCCCCCC[P+](Cc1ccccc1O)(c1ccccc1)c1ccccc1.[Cl-]
Ans. 4.8

Qu. Name the recorded hemolysis at 240 µM of the molecule listed here: CCCCCC[P+](Cc1ccccc1O)(c1ccccc1)c1ccccc1.[Cl-]
Ans. 2.5

Qu. Name the recorded hemolysis at 240 µM of the molecule listed here: CCCCCCC[P+](Cc1ccccc1O)(c1ccccc1)c1ccccc1.[Cl-]
Ans. 1.9

Qu. Name the recorded hemolysis at 240 µM of the molecule listed here: CCCCCCCCCCCCCCCC[P+](Cc1ccccc1O)(c1ccccc1)c1ccccc1.[Cl-]
Ans. 100

* * *

Task for the reader: assign each of the following compounds its reported pIC50.
- Tested on: M-HeLa
- EXPERIMENTAL DETAILS: Cytotoxicity against human M-HeLa cells
- Format: functional, cell-based
// field semantics: pIC50 = negative decimal log of concentration (mol/L)

Qu. Name the recorded pIC50 of the compound listed here: CCCCCCCCCCCCCCCCCC[P+](Cc1ccccc1O)(c1ccccc1)c1ccccc1.[Cl-]
Ans. 4.17

Qu. Name the recorded pIC50 of the compound listed here: CCCCCCCCCCCCCC[P+](Cc1ccccc1O)(c1ccccc1)c1ccccc1.[Cl-]
Ans. 5.46

Qu. Name the recorded pIC50 of the compound listed here: CCCCCCCC[P+](Cc1ccccc1O)(c1ccccc1)c1ccccc1.[Cl-]
Ans. 5.43

Qu. Name the recorded pIC50 of the compound listed here: CCCCCCCCCCCCCCCC[P+](Cc1ccccc1O)(c1ccccc1)c1ccccc1.[Cl-]
Ans. 5.49

Qu. Name the recorded pIC50 of the compound listed here: CCCCCCCCCC[P+](Cc1ccccc1O)(c1ccccc1)c1ccccc1.[Cl-]
Ans. 5.47

* * *

Task for the reader: assign each of the following compounds its reported hemolysis at 10 µM.
- EXPERIMENTAL DETAILS: Hemolytic activity against RBC (unknown origin) at 10 uM
- Type: ADME, cell-based, Erythrocyte
- CONDITION INFO: red blood cells (erythrocytes); read-out: Activity
Non-standard residues stand in square brackets, D forms with d. Residues, ends and D or L forms follow the SMILES beside them. Orn = NCCC[C@H](N)C(=O)O
The figure you give is taken to be in %; do not add the unit.

Qu. Name the recorded hemolysis at 10 µM of the compound listed here: CCCCCCCCCCCCCCCCCC[P+](Cc1ccccc1O)(c1ccccc1)c1ccccc1.[Cl-]
Ans. 0

Qu. Name the recorded hemolysis at 10 µM of the compound listed here: CCCCCCCCCCCCCC[P+](Cc1ccccc1O)(c1ccccc1)c1ccccc1.[Cl-]
Ans. 0

Qu. Name the recorded hemolysis at 10 µM of the compound listed here: CCCCCC[P+](Cc1ccccc1O)(c1ccccc1)c1ccccc1.[Cl-]
Ans. 0

Qu. Name the recorded hemolysis at 10 µM of the compound listed here: CCCCCCCCCC[P+](Cc1ccccc1O)(c1ccccc1)c1ccccc1.[Cl-]
Ans. 0.8

Qu. Name the recorded hemolysis at 10 µM of the compound listed here: CCCCCCC[P+](Cc1ccccc1O)(c1ccccc1)c1ccccc1.[Cl-]
Ans. 0.2

Qu. Name the recorded hemolysis at 10 µM of the compound listed here: CCCCCCCC[P+](Cc1ccccc1O)(c1ccccc1)c1ccccc1.[Cl-]
Ans. 0

Qu. Name the recorded hemolysis at 10 µM of the compound listed here: CC(C)C[C@@H]1NC(=O)[C@H](CCCN)NC(=O)[C@H](C(C)C)NC(=O)[C@@H]2CCCN2C(=O)[C@@H](Cc2ccccc2)NC(=O)[C@H](CC(C)C)NC(=O)[C@H](CCCN)NC(=O)[C@H](C(C)C)NC(=O)[C@@H]2CCCN2C(=O)[C@@H](Cc2ccccc2)NC1=O (cyclo(L[dF]PV[Orn]L[dF]PV[Orn]))
Ans. 1.5

Qu. Name the recorded hemolysis at 10 µM of the compound listed here: CCCCCCCCCCCC[P+](Cc1ccccc1O)(c1ccccc1)c1ccccc1.[Cl-]
Ans. 1.3

Qu. Name the recorded hemolysis at 10 µM of the compound listed here: CCCCCCCCCCCCCCCC[P+](Cc1ccccc1O)(c1ccccc1)c1ccccc1.[Cl-]
Ans. 0.9
